Source of measurements: ChEMBL document CHEMBL1201862

Assay: viability of uninfected HEp-2 cells – cell-based, HTS, cytotoxicity control for RSV inhibitor project, dose response (AID 2410)
Format: functional
Details: human respiratory syncytial virus
Calls of active or inactive are those of the source.
Each entry below carries its recorded CC50.

| MOLECULE | CC50 |
| --- | --- |
| O=C(Nc1nnc(C2CC2)s1)c1cc(-c2ccccc2)nn1-c1ccccc1 | 13.1 µM (active) |
| COc1ccc2nc(Nc3ccccc3)sc2c1 | 33.6 µM (active) |
| N#C/C(=C/c1ccc(-c2cc([N+](=O)[O-])ccc2Cl)o1)C(N)=O | 16.6 µM (active) |
| O=C(CCCN1C(=O)/C(=C\c2cccs2)SC1=S)Nc1ccc(O)cc1 | 12.5 µM (active) |
| CCCCc1c(O)nc2ccc(C)cc2c1C | 26.6 µM (active) |
| CCCCCCCCCCCCCCCC(=O)OC(CC(=O)O)C[N+](C)(C)C (configuration not stated) | 23.7 µM (active) |
| CN1c2ccccc2Oc2nnc(Cl)cc21 | 43.3 µM (active) |
| Cc1ccc2[nH]c(-c3cccc(N)c3)cc2c1 | > 50 µM (active) |
| CCOC(=O)C(=Cc1c[nH]c2ccc(S(=O)(=O)N(C)C)cc12)C(=O)OCC | 13.4 µM (active) |
| Oc1nc2cccc(F)c2n2cccc12 | 30 µM (active) |
| COc1ccc(C(=O)/C=C/c2ccc(F)cc2)c(OC(=O)c2ccc([N+](=O)[O-])cc2)c1 | 20.5 µM (active) |
| Cc1nc(N2CCOCC2)nc(N2CCCCC2C)c1[N+](=O)[O-] (configuration not stated) | 21.9 µM (active) |

###

Target: Protein skinhead-1 (Caenorhabditis elegans)
Sequence (P34707 whole entry): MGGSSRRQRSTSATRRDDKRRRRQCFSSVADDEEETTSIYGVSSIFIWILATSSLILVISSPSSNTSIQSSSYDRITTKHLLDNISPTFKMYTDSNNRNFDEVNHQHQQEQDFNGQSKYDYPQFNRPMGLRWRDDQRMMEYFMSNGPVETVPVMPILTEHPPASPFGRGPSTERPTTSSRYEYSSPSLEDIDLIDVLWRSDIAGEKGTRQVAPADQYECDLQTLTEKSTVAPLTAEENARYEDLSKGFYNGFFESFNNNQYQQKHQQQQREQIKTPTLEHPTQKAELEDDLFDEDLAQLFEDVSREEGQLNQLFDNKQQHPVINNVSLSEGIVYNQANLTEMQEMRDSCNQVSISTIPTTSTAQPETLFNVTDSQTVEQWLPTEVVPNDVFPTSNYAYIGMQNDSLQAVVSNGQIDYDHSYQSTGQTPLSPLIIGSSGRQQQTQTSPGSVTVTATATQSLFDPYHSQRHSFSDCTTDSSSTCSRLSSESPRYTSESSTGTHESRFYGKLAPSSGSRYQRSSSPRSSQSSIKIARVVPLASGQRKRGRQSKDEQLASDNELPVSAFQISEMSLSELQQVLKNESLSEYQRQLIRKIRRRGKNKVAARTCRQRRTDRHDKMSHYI
Type: functional
The source made the active and inactive calls.
Outcome codes: active, inactive

| MOLECULE | TARGET SYSTEM | ASSIGNED LABEL |
| --- | --- | --- |
| c1ccc(OCc2cc(-c3ccccc3)no2)cc1 | Protein skinhead-1 (Caenorhabditis elegans) | inactive |
| COC(=O)C1C2CC3c4[nH]c5cc(OC)ccc5c4CCN3CC2CC(OC(=O)CC(C)=O)C1OC (configuration not stated) | Protein skinhead-1 (Caenorhabditis elegans) | inactive |
| COc1ccccc1C(=O)Nc1ccc2ccccc2c1 | Protein skinhead-1 (Caenorhabditis elegans) | active |
| Cc1ccc(-c2nc3ccc(Br)cn3c2Cc2ccccc2C(F)(F)F)cc1 | Protein skinhead-1 (Caenorhabditis elegans) | inactive |
| O=C(Nc1ccccc1Cl)c1cc(C2CCCN(C(=O)OCCF)C2)on1 (configuration not stated) | Protein skinhead-1 (Caenorhabditis elegans) | inactive |
| Cc1onc(-c2c(F)cccc2Cl)c1C(=O)Nc1nc2ccccc2[nH]1 | Protein skinhead-1 (Caenorhabditis elegans) | inactive |
| C(/C=C/c1ccccn1)=C\c1ccccc1 | Protein skinhead-1 (Caenorhabditis elegans) | inactive |
| O=C1NC[C@H](Cc2ccccc2)N(C[C@@H]2CCCN2C[C@H](Cc2ccc(O)cc2)N2C[C@H](Cc3ccccc3)N(CC3CCCCCC3)C(=O)C2=O)C1=O | Protein skinhead-1 (Caenorhabditis elegans) | inactive |
| COc1cccc(-n2cnnn2)c1 | Protein skinhead-1 (Caenorhabditis elegans) | inactive |
| Cc1nc(NC(=O)c2cccs2)ccc1Br | Protein skinhead-1 (Caenorhabditis elegans) | active |
| CCc1ccc2oc(-c3ccc(N)cc3)nc2c1 | Protein skinhead-1 (Caenorhabditis elegans) | active |
| Brc1ccc(-c2nc(-c3ccccc3)no2)o1 | Protein skinhead-1 (Caenorhabditis elegans) | active |
